# assayed-system: MAGL (Mus musculus, UniProt O35678)
# Construct: Proteomes (mouse brain membrane fraction or cell lysates); from tissue; host or cells: mouse brain membrane fraction (or cell lysates, not specified)
# Sequence (O35678 whole entry): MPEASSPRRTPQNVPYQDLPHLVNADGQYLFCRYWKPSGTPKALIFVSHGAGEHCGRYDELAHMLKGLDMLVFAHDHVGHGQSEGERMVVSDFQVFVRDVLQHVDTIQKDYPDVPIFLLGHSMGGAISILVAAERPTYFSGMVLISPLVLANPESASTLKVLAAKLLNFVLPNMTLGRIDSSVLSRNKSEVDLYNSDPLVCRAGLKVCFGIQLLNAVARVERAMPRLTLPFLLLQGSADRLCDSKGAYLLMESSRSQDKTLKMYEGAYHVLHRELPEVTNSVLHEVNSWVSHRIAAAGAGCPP
# test-summary: In vitro competitive activity-based protein profiling (gel-based, FP-Rh or HT-01 probe)
# Assay type: biochemical
# conditions-used: 1 μM inhibitor
# Description: In Vitro Competitive Activity-Based Protein Profiling. Proteomes (mouse brain membrane fraction or cell lysates) (50 μL, 1.0 mg/mL total protein concentration) were preincubated with varying concentrations of inhibitors at 37° C. […] Following gel imaging, serine hydrolase activity was determined by measuring fluorescent intensity of gel bands corresponding to MAGL, ABHD6, FAAH, and PLA2G7 using ImageJ 1.43u software.
# reported inhibition at 1 µM; entries follow

{"columns": ["smiles", "result"],
 "data": [
  ["COc1cccc(N2CCN(C(=O)n3cc(C(F)(F)F)cn3)CC2)c1", "> 75%"]
]}

Q: Can you look up inhibition at 1 µM on MAGL (Mus musculus, UniProt O35678) for O=C(N1CCN(Cc2ccc(C(F)(F)F)cc2N2CCCC2)CC1)n1cc(-c2ccc(C(F)(F)F)cc2)cn1 ?
Ans: 25 to 75%

Q: Can you look up inhibition at 1 µM on MAGL (Mus musculus, UniProt O35678) for CN(Cc1cccc(-c2ccncc2)c1)C(=O)n1cc(Cl)cn1 ?
Ans: > 75%

Q: Can you look up inhibition at 1 µM on MAGL (Mus musculus, UniProt O35678) for CS(=O)(=O)N1CCCN(C(=O)n2cc(C#N)cn2)CC1 ?
Ans: < 25%

Q: Can you look up inhibition at 1 µM on MAGL (Mus musculus, UniProt O35678) for CS(=O)(=O)N1CCCN(C(=O)n2cc(C(F)(F)F)cn2)CC1 ?
Ans: < 25%
